System tested: Cholecystokinin receptor type A (Rattus norvegicus, UniProt P30551)
Sequence (P30551 whole entry): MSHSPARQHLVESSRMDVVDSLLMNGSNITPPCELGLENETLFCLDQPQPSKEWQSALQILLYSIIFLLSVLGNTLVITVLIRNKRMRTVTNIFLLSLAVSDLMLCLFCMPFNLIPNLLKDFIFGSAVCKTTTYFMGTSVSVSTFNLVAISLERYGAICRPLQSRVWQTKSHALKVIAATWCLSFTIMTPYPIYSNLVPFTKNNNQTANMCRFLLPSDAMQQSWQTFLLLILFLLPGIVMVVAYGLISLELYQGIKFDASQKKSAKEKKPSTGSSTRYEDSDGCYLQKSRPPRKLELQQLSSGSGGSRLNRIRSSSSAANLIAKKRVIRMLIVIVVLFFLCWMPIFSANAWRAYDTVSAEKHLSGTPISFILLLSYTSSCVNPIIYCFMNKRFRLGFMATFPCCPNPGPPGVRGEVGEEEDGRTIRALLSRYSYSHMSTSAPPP
pIC50: −log10 of the molar value.
Property label: pIC50

Look over these answered cases.
1. CC(Cc1c[nH]c2ccccc12)(NC(=O)OC1[C@H]2C[C@@H]3C[C@@H](C[C@H]1C3)C2)C(=O)N(CCc1ccccc1)CC(=O)O (single isomer, unassigned)    5.97
2. CC(Cc1c[nH]c2ccccc12)(NC(=O)OC1[C@H]2C[C@@H]3C[C@@H](C[C@H]1C3)C2)C(=O)N(CCC(=O)O)CCc1ccccc1 (single isomer, unassigned)    6.28
3. CC(Cc1c[nH]c2ccccc12)(NC(=O)OC1[C@H]2C[C@@H]3C[C@@H](C[C@H]1C3)C2)C(=O)N(CCCC(=O)O)CCc1ccccc1 (single isomer, unassigned)    6.25

P = COC(=O)CCCCCCN(CCc1ccccc1)C(=O)[C@](C)(Cc1c[nH]c2ccccc12)NC(=O)OC1[C@H]2C[C@@H]3C[C@@H](C[C@H]1C3)C2 (stereo partly specified)
Q = COC(=O)CCN(CCc1ccccc1)C(=O)C(C)(Cc1c[nH]c2ccccc12)NC(=O)OC1[C@H]2C[C@@H]3C[C@@H](C[C@H]1C3)C2 (single isomer, unassigned)
Which of these two has the smaller recorded pIC50: P or Q ? Refer to your chosen item by its label in the answer.
P
(P: 5.20, Q: 5.70)

---

Test details: Ratio of inhibition at CCK-A compared to CCK-B receptors.
Property label: Ratio

P = C[C@@](Cc1c[nH]c2ccccc12)(NC(=O)OC1[C@H]2C[C@@H]3C[C@@H](C[C@H]1C3)C2)C(=O)NCCc1ccccn1 (stereo partly drawn)
Q = COC(=O)CN(CCc1ccccn1)C(=O)C(C)(Cc1c[nH]c2ccccc12)NC(=O)OC1[C@H]2C[C@@H]3C[C@@H](C[C@H]1C3)C2 (single isomer, unassigned)
Which of these two has the smaller recorded Ratio: P or Q ? Refer to your chosen item by its label in the answer.
Q
(Q: 27.7, P: 119)

---

Test details: Ratio of inhibition at CCK-A compared to CCK-B receptors.
Property label: Ratio

1) COC(=O)CN(CCc1ccccc1)C(=O)[C@](C)(Cc1c[nH]c2ccccc12)NC(=O)OC1[C@H]2C[C@@H]3C[C@@H](C[C@H]1C3)C2 (stereo not given in full)    4.4

a = CC(Cc1c[nH]c2ccccc12)(NC(=O)OC1[C@H]2C[C@@H]3C[C@@H](C[C@H]1C3)C2)C(=O)N(CCCC(=O)O)CCc1ccccc1 (single isomer, unassigned)
b = C[C@@](Cc1c[nH]c2ccccc12)(NC(=O)OC1[C@H]2C[C@@H]3C[C@@H](C[C@H]1C3)C2)C(=O)N(CCc1ccccn1)CC(=O)O (stereo not given in full)
c = COC(=O)CCCCCCN(CCc1ccccc1)C(=O)[C@](C)(Cc1c[nH]c2ccccc12)NC(=O)OC1[C@H]2C[C@@H]3C[C@@H](C[C@H]1C3)C2 (stereo not given in full)
d = COC(=O)CCN(CCc1ccccc1)C(=O)C(C)(Cc1c[nH]c2ccccc12)NC(=O)OC1[C@H]2C[C@@H]3C[C@@H](C[C@H]1C3)C2 (single isomer, unassigned)
Endpoint returns the given compounds ordered by ascending Ratio. Give the labels in the order requested.
a, d, c, b

---

System tested: Gastrin/cholecystokinin type B receptor (Mus musculus)
Sequence (P56481 whole entry): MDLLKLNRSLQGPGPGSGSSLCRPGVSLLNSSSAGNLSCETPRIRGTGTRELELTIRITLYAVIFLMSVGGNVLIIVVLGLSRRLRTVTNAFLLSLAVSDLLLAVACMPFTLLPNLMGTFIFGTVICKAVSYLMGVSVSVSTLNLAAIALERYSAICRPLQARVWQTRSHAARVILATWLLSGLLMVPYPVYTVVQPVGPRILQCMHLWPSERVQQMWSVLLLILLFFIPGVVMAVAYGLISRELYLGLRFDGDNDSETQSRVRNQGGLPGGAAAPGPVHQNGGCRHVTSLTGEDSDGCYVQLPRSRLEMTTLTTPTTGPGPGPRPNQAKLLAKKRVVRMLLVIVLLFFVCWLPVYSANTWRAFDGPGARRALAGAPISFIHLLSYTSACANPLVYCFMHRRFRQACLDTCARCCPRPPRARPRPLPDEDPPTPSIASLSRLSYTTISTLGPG
Property label: IC50 (nM)

P = C[C@@](Cc1c[nH]c2ccccc12)(NC(=O)OC1[C@H]2C[C@@H]3C[C@@H](C[C@H]1C3)C2)C(=O)NCCc1ccccn1 (some centres undefined)
Q = COC(=O)CCCCCCN(CCc1ccccc1)C(=O)[C@](C)(Cc1c[nH]c2ccccc12)NC(=O)OC1[C@H]2C[C@@H]3C[C@@H](C[C@H]1C3)C2 (some centres undefined)
R = COC(=O)CN(CCc1ccccc1)C(=O)[C@](C)(Cc1c[nH]c2ccccc12)NC(=O)OC1[C@H]2C[C@@H]3C[C@@H](C[C@H]1C3)C2 (some centres undefined)
S = CC(Cc1c[nH]c2ccccc12)(NC(=O)OC1[C@H]2C[C@@H]3C[C@@H](C[C@H]1C3)C2)C(=O)N(CCCC(=O)O)CCc1ccccc1 (single isomer, unassigned)
Sort ascending by IC50. Give the labels in the order requested.
P, S, Q, R
(P: 15.5 nM, S: 80.2 nM, Q: 177 nM, R: 532 nM)
